biological target: human CA9 (carbonic anhydrase IX) (human, UniProt Q16790 38-414); assay: BIAcore T100, mAb captured on anti-human IgG, antigen as analyte, 1:1 model; mAb purified by protein A (ProA)
Listed here are binders together with their documented pKd.
Entry type: numeric. Quantity: pKd, the -log10 of concentration in molar units.

Examples from the recorded data:
{"binder": "zu155D5-5 (antibody, human IgG1, kappa, V domains shown, Humanized 155D5, human IgG1 kappa; Tested both protein A purified and decapped) VH: QVQLVESGGGLVQPGGSLRLSCSASGFSLNSYAMIWVRQAPGKGLEYIGFITTGGTTYYADSVKGRFTISRDNSKNTLYLQMNSLRAEDTAVYYCARDRVKSYDDYGDLDAFEPWGQGTLVTVSS VL: DIQMTQSPSTLSASVGDRVTITCQASQSISSYLAWYQQKPGKAPKLLIYYASTLASGVPSRFKGSGSGTEFTLTITGVQCDDAATYYCLGVYGYSFDDGIAFGGGTKVEIKR", "pKd": 9.19}
{"binder": "zu155D5-3 (antibody, human IgG1, kappa, V domains shown, Humanized 155D5, human IgG1 kappa; Tested both protein A purified and decapped; also called zu155D5-CXXA) VH: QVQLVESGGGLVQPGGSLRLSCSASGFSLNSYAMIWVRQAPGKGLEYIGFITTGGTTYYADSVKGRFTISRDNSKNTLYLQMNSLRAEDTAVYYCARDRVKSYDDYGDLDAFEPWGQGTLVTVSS VL: DIQMTQSPSTLSASVGDRVTITCQASQSISSYLAWYQQKPGKAPKLLIYYASTLASGVPSRFSGSGSGTEFTLTISSLQCDDAATYYCLGVYGYSFDDGIAFGGGTKVEIKR", "pKd": 9.25}

State, in one line, measured pKd of zu155D5-2 (antibody, human IgG1, kappa, V domains shown, Humanized 155D5, human IgG1 kappa; Tested both protein A purified and decapped) VH: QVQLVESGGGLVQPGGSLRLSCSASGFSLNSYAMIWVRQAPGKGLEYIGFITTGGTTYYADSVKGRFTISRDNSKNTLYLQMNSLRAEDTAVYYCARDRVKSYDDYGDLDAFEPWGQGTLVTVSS VL: DIQMTQSPSTLSASVGDRVTITCQASQSISSYLAWYQQKPGKAPKLLIYYASTLASGVPSRFSGSGSGTEFTLTITGVQCDDFATYYCLGVYGYSFDDGIAFGGGTKVEIKR
9.24
